The measurements presented in this section are drawn from the supplement of paper PMC13380429.

- Tested on: HepG2
- assay comment: cell viability relative to DMSO; higher = less toxic
- test conditions: 72 h; 1 nM
experimental readout: cell viability (%)
Please give a number only; it is taken to be in %.

(Q) Look up cell viability of C[C@@H](C(=O)O)c1ccc(-c2ccccc2)c(F)c1 (racemic) [flurbiprofen-(+/-)] and report it.
(A) 95

(Q) Look up cell viability of "NCCCCN=C(N)N" and report it.
(A) 95.5

(Q) Look up cell viability of "CC[C@H](C)C[C@H](C)CCCCCCCCC(=O)N[C@H]1C[C@@H](O)[C@@H](NCCN)NC(=O)[C@@H]2[C@@H](O)CCN2C(=O)[C@H]([C@H](O)CCN)NC(=O)[C@H]([C@H](O)[C@@H](O)c2ccc(O)cc2)NC(=O)[C@@H]2C[C@@H](O)CN2C(=O)[C@H]([C@@H](C)O)NC1=O" and report it.
(A) 91.8

(Q) Look up cell viability of "NCCc1ccccn1" and report it.
(A) 113

(Q) Look up cell viability of "N[C@@H](Cc1cc(CP(=O)(O)O)cc(-c2ccccc2Cl)c1)C(=O)O" and report it.
(A) 96

(Q) Look up cell viability of O=S(=O)(F)Cc1ccccc1 [phenylmethylsulfonyl-fluoride] and report it.
(A) 109

(Q) Look up cell viability of "C/C(O)=C(\C#N)C(=O)Nc1cc(Br)ccc1Br" and report it.
(A) 105

(Q) Look up cell viability of "O=c1sn(-c2cccc3ccccc23)c(=O)n1Cc1ccccc1" and report it.
(A) 90.7

(Q) Look up cell viability of "O=[N+]([O-])c1cn2c(n1)OC[C@@H](OCc1ccc(OC(F)(F)F)cc1)C2" and report it.
(A) 106

(Q) Look up cell viability of "CNc1ccc([N+](=O)[O-])cc1-n1cnc(-c2ccc(C(F)(F)F)cc2)c1" and report it.
(A) 108

(Q) Look up cell viability of "O=C(O)Cc1cccnc1C(=O)O" and report it.
(A) 104

(Q) Look up cell viability of "Cc1c(-c2ccccc2F)[nH]c(N)c1C#N" and report it.
(A) 93.1

(Q) Look up cell viability of "CNC(=O)c1cnn(-c2nc(N)c3ncn([C@@H]4O[C@H](CO)[C@@H](O)[C@H]4O)c3n2)c1" and report it.
(A) 102

(Q) Look up cell viability of "CN(C)[C@@H]1C(O)=C(C(N)=O)C(=O)[C@@]2(O)C(O)=C3C(=O)c4c(O)cccc4[C@@](C)(O)[C@H]3C[C@@H]12" and report it.
(A) 107

(Q) Look up cell viability of "C[C@H]1[C@@H](O)O[C@@H]2O[C@@]3(C)CC[C@H]4[C@H](C)CC[C@@H]1[C@@]24OO3" and report it.
(A) 106

(Q) Look up cell viability of CCCCN(CCCC)CCC(O)c1cc2c(Cl)cc(Cl)cc2c2cc(C(F)(F)F)ccc12 (stereo not given) and report it.
(A) 95.5

(Q) Look up cell viability of "CNC(=O)c1cc(Oc2ccc(NC(=O)Nc3ccc(Cl)c(C(F)(F)F)c3)c(F)c2)ccn1" and report it.
(A) 102

(Q) Look up cell viability of "O=C(O)c1cc(O)c2c(Cl)cc(Cl)cc2n1" and report it.
(A) 96.3

(Q) Look up cell viability of CC(C)(Oc1ccc(Cl)cc1)C(=O)N1CSCC1C(=O)O (stereo not given) [timofibrate] and report it.
(A) 99

(Q) Look up cell viability of "C=C[C@@]1(C)CC(=O)[C@]2(O)[C@@]3(C)[C@@H](O)CCC(C)(C)[C@@H]3[C@H](O)[C@H](OC(C)=O)[C@@]2(C)O1" and report it.
(A) 110

(Q) Look up cell viability of "COc1cc(S(C)(=O)=O)ccc1Nc1nc2ccc(-c3ccc(NC(=O)[C@H](C)c4ccc(F)cc4)cc3)cn2n1" and report it.
(A) 106

(Q) Look up cell viability of "COC(=O)[C@@H](N)CS" and report it.
(A) 108

(Q) Look up cell viability of "CC(=O)N[C@@H](CSSC[C@H](NC(C)=O)C(=O)O)C(=O)O" and report it.
(A) 108

(Q) Look up cell viability of CCCCCCCCCCC(=O)O[C@H]1CC[C@H]2[C@@H]3CCC4=CC(=O)CC[C@]4(C)[C@H]3CC[C@]12C [Testosterone (undecanoate)] and report it.
(A) 95.6

(Q) Look up cell viability of CN(C(=O)CCCOc1ccc2[nH]c(=O)ccc2c1)C1CCCCC1 [cilostamide] and report it.
(A) 97.2

* * *

- System: HepG2
- assay comment: cell viability relative to DMSO; higher = less toxic
- test conditions: 72 h; 10 nM
experimental readout: cell viability (%)
Please give a number only; it is taken to be in %.

(Q) Look up cell viability of "CC(C)Oc1ccc(Cc2ccc(NC3=NCCN3)cc2)cc1" and report it.
(A) 94.6

(Q) Look up cell viability of "CC(C)(C)C(=O)OCOC(=O)[C@@H]1N2C(=O)[C@@H](NC(=O)[C@H](N)c3ccccc3)[C@H]2SC1(C)C" and report it.
(A) 97.7

(Q) Look up cell viability of "CC[C@H](C)C[C@H](C)CCCCCCCCC(=O)N[C@H]1C[C@@H](O)[C@@H](NCCN)NC(=O)[C@@H]2[C@@H](O)CCN2C(=O)[C@H]([C@H](O)CCN)NC(=O)[C@H]([C@H](O)[C@@H](O)c2ccc(O)cc2)NC(=O)[C@@H]2C[C@@H](O)CN2C(=O)[C@H]([C@@H](C)O)NC1=O" and report it.
(A) 106

(Q) Look up cell viability of "Cc1cccc(-c2[nH]c(CNc3ccccc3F)nc2-c2ccc3ncnn3c2)n1" and report it.
(A) 104

(Q) Look up cell viability of "Cc1cc(O)c(C(C)C)cc1Cl" and report it.
(A) 90.1

(Q) Look up cell viability of C[C@]12CCC(=O)C=C1CC[C@@H]1[C@@H]2[C@@H](O)C[C@@]2(C)[C@H]1CC[C@]2(O)C(=O)COC(=O)CCC(=O)O [hydrocortisone-hemisuccinate] and report it.
(A) 113

(Q) Look up cell viability of "COc1nccc(-c2c(-c3ccc(F)cc3)ncn2[C@H]2CC[C@H](O)CC2)n1" and report it.
(A) 97.6

(Q) Look up cell viability of "C[C@@]1(C(=O)O)NCCc2cc(O)c(O)cc21" and report it.
(A) 106

(Q) Look up cell viability of "CC(C)N(C[C@H]1O[C@@H](n2cnc3c(N)ncnc32)[C@H](O)[C@@H]1O)[C@H]1C[C@@H](CCc2nc3cc(C(C)(C)C)ccc3[nH]2)C1" and report it.
(A) 94.9

* * *

- System: U2OS
- assay comment: cell viability relative to DMSO; higher = less toxic
- test conditions: 72 h; 100 nM
Kindly supply the reported cell viability values for the records listed here.
Please give a number only; it is taken to be in %.

(Q) Look up cell viability of COC(=O)C1=C(C)NC(C)=C(C(=O)NCCCN2CCC(c3ccccc3)(c3ccccc3)CC2)C1c1ccc([N+](=O)[O-])cc1 (stereo not drawn) and report it.
(A) 98.5

(Q) Look up cell viability of "C/C(O)=C(\C#N)C(=O)Nc1cc(Br)ccc1Br" and report it.
(A) 97.3

(Q) Look up cell viability of "O=C(CCCN1CCC2(CC1)C(=O)NCN2c1ccccc1)c1ccc(F)cc1" and report it.
(A) 101

(Q) Look up cell viability of "CN[C@@H]1[C@@H](O[C@H]2O[C@H](CO)[C@@H](N)[C@H](O)[C@H]2O)O[C@H]2C[C@@H](N)[C@@H](O[C@H]3[C@H](O)[C@@H](O)[C@H](N)C[C@@H]3N)O[C@@H]2[C@@H]1O" and report it.
(A) 92.8

(Q) Look up cell viability of O=C(C[C@H]1CC(c2ccc(F)cc2F)=NO1)N1CCOCC1 (racemic) [CPSI-1306-(+/-)] and report it.
(A) 99.1

(Q) Look up cell viability of "O=C(O)CCn1c2c(c3ccccc31)C[C@H](NS(=O)(=O)c1ccc(F)cc1)CC2" and report it.
(A) 95.8

(Q) Look up cell viability of "Nc1nccc(-c2ccc3noc(-c4ccc(Cl)cc4)c3c2)n1" and report it.
(A) 93.2

(Q) Look up cell viability of "CCCCCCCCc1ccc(-c2ccc(C(=O)O)cc2)cc1" and report it.
(A) 96.8

* * *

- System: Calu-3
- assay comment: cell viability relative to DMSO; higher = less toxic
- test conditions: 72 h; 10 nM
Kindly supply the reported cell viability values for the records listed here.
Please give a number only; it is taken to be in %.

(Q) Look up cell viability of "Cc1cc(O)c(C(C)C)cc1Cl" and report it.
(A) 83.8

(Q) Look up cell viability of "O=C(O)CCc1c[nH]c2ccccc12" and report it.
(A) 95.5

(Q) Look up cell viability of "CCC[C@@H]1C[C@@H](C(=O)N[C@@H]([C@H]2O[C@H](SC)[C@H](O)[C@@H](O)[C@H]2O)[C@@H](C)O)N(C)C1" and report it.
(A) 92.6

(Q) Look up cell viability of "C[C@H](CCC(=O)O)[C@H]1CC[C@H]2[C@@H]3CC[C@@H]4C[C@H](O)CC[C@]4(C)[C@H]3C[C@H](O)[C@]12C" and report it.
(A) 93.9

(Q) Look up cell viability of CC[C@H](CO)Nc1nc(NCc2ccc(-c3ccccn3)cc2)c2ncn(C(C)C)c2n1 [CR8-(R)] and report it.
(A) 80

(Q) Look up cell viability of "COc1cc2c(NC3CCN(C(C)C)CC3)nc(N3CCC(F)(F)CC3)nc2cc1OCCCN1CCCC1" and report it.
(A) 95.1

(Q) Look up cell viability of "CC(C)(C)C(=O)OCOC(=O)[C@@H]1N2C(=O)[C@@H](NC(=O)[C@H](N)c3ccccc3)[C@H]2SC1(C)C" and report it.
(A) 108

(Q) Look up cell viability of N#CCC(=O)NN [cyacetacide] and report it.
(A) 103

(Q) Look up cell viability of CN1c2ccccc2C(=O)N2CCc3c([nH]c4ccccc34)C21 (stereo in doubt) and report it.
(A) 89.9

(Q) Look up cell viability of "O=C(c1ccc(OCCN2CCCCC2)cc1)c1c(-c2ccc(O)cc2)sc2cc(O)ccc12" and report it.
(A) 92.4

(Q) Look up cell viability of "N[C@@H]1CN(c2c(F)cc3c(=O)c(C(=O)O)cn([C@@H]4C[C@@H]4F)c3c2Cl)CC12CC2" and report it.
(A) 94

(Q) Look up cell viability of "Cc1ccc(NC2=NCCN2)c(Cl)c1" and report it.
(A) 112

(Q) Look up cell viability of "CCCCCCCCCCCC[N+](C)(C)CCOc1ccccc1" and report it.
(A) 92.7

(Q) Look up cell viability of "CCn1cnc(C(=O)NC)c1C(=O)NC" and report it.
(A) 92.4

(Q) Look up cell viability of "C=C[C@@]1(C)CC(=O)[C@]2(O)[C@@]3(C)[C@@H](O)CCC(C)(C)[C@@H]3[C@H](O)[C@H](OC(C)=O)[C@@]2(C)O1" and report it.
(A) 109

(Q) Look up cell viability of "O=C(O)CCn1c2c(c3ccccc31)C[C@H](NS(=O)(=O)c1ccc(F)cc1)CC2" and report it.
(A) 97.7

(Q) Look up cell viability of "CC#CC(=O)N1CC[C@@H](n2c(=O)n(-c3ccc(Oc4ccccc4)cc3)c3c(N)ncnc32)C1" and report it.
(A) 96.7

(Q) Look up cell viability of "CO[C@H]1C[C@H](O[C@@H]2/C(C)=C/C[C@@H]3C[C@@H](C[C@]4(CC[C@H](C)[C@@H](C5CCCCC5)O4)O3)OC(=O)[C@@H]3C=C(C)/C(=N/O)[C@H]4OC/C(=C\C=C\[C@@H]2C)[C@]43O)O[C@@H](C)[C@@H]1O" and report it.
(A) 106

(Q) Look up cell viability of "O=C(NCCN1CCC(n2c(=O)[nH]c3ccccc32)CC1)c1cc2cc(F)ccc2[nH]1" and report it.
(A) 101

(Q) Look up cell viability of "C=CC[C@]1(O)CC[C@H]2[C@@H]3CCC4=CC(=O)CCC4=C3C=C[C@@]21C" and report it.
(A) 88

(Q) Look up cell viability of CC(=O)N(CC(O)CN(C(C)=O)c1c(I)c(C(=O)NCC(O)CO)c(I)c(C(=O)NCC(O)CO)c1I)c1c(I)c(C(=O)NCC(O)CO)c(I)c(C(=O)NCC(O)CO)c1I (centres undefined) and report it.
(A) 107

(Q) Look up cell viability of "CC(C)(C)OC(=O)N[C@H]1CCCCC/C=C\[C@@H]2C[C@@]2(C(=O)NS(=O)(=O)C2CC2)NC(=O)[C@@H]2C[C@@H](OC(=O)N3Cc4cccc(F)c4C3)CN2C1=O" and report it.
(A) 103

(Q) Look up cell viability of "Cc1cc(Nc2ncnc3ccc(NC4=NC(C)(C)CO4)cc23)ccc1Oc1ccn2ncnc2c1" and report it.
(A) 93.3

(Q) Look up cell viability of "O=C(Nc1ccccc1Br)N[C@@H]1CCN(c2ccc(C(F)(F)F)cn2)C1" and report it.
(A) 98.5

(Q) Look up cell viability of "CO[C@@]1(NC(=O)Cc2cccs2)C(=O)N2C(C(=O)O)=C(COC(N)=O)CS[C@@H]21" and report it.
(A) 94.4

(Q) Look up cell viability of "Oc1cccc2cccnc12" and report it.
(A) 114

(Q) Look up cell viability of "N[C@H](C(=O)O)c1ccc(O)cc1" and report it.
(A) 95.1

(Q) Look up cell viability of "COc1ccc(-c2cc(=O)c3c(OC)c(OC)c(OC)c(OC)c3o2)cc1OC" and report it.
(A) 111

(Q) Look up cell viability of "NC(=O)c1ccc(F)c2c1C[C@@H](N(C1CCC1)C1CCC1)CO2" and report it.
(A) 110
